# system_under_test: AAV9 (adeno-associated virus serotype 9)
# assay_explanation: SPR, AAV on CM5 chip
measured_metric: Kd (nM)
Answers are plain numbers, in nM.

Query: If you can, please state the reported Kd value of A4-C9 (bispecific antibody) VQLQESGGGLVQPGGSLRLSCAASGSNFSINTMGWYRQAPGKQRELVATVTRGGDTNYADSVKGRFTISRDNAKNTVYLQMNSLRPEDTAVYYCHVDEIRESSWTTSNLWGQGTQVTVSSGGGGSGGGGSGGGGSVQLQESGGGLVQPGGSLRLSCAASGSNFSINTMGWYRQAPGKQRELVAALTRGGSTNYADSVKGRFTISRDNAKNTVYLQMNSLRPEDTAVYYCHVDEVRESSWTTSNLWGQGTQVTVSSGGGGSGGGGSGGGGSVQLQESGGGLVQPGGSLRLSCAASGSNFRINTMGWYRQAPGKQRELVAPVTRGGSTNYADSVKGRFTISRDNAKNTVYLQMNSLRPEDTAVYYCHVDEVRESSWTTSNLWGQGTQVTVSS .
Response: 0.669
